Molecular target: T1, human CD166 protein (human, UniProt Q13740 28-526)
T1 chain: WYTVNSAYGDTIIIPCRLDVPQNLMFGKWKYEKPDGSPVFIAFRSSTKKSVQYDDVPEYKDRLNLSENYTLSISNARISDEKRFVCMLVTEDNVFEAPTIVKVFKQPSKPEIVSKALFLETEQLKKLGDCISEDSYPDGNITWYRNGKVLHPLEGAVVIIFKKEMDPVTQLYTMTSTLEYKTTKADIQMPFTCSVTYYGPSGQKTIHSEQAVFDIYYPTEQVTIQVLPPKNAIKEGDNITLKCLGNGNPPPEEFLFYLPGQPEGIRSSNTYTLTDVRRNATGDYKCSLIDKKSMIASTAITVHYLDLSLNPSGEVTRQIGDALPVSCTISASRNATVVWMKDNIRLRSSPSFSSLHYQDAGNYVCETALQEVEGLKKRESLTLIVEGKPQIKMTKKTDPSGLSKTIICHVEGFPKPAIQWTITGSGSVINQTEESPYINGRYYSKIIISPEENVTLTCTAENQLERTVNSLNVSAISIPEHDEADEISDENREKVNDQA
Assay: FACS; apparent Kd
pKd: −log10 of the molar value.
We begin with a simple list: items and their reported pKd.
measurementName: pKd

>  <binder>
CD166-M9_vK3a/HcC (antibody, V domains shown) VH: QITLKESGPTLVKPTQTLTLTCTFSGFSLSTYGMGVGWIRQPPGKALEWLANIWWSEDKHYSPSLKSRLTITKDTSKNQVVLTITNVDPVDTATYYCVQIDYGNDYAFTYWGQGTLVTVSS VL: DIVMTQSPLSLPVTPGEPASISCRSSQSLLHSNGITYLYWYLQKPGQSPQLLIYQMSNRASGVPDRFSGSGSGTDFTLKISRVEAEDVGVYYCAQNLELPYTFGQGTKLEIK

>  <measurementName>
pKd

>  <observed>
8.42

$$$$
>  <binder>
CD166-M9_vK3b/HcB (antibody, V domains shown) VH: QITLKESGPTLVKPTQTLTLTCTFSGFSLSTYGMGVGWIRQPPGKALEWLANIWWSEDKHYSPSLKSRLTITKDTSKNQVVLTMTNMDPVDTATYYCVQIDYGNDYAFTYWGQGTLVTVSS VL: DIVMTQSPLSLPVTPGEPASISCRSSQSLLHSNGITYLYWYLQKPGQSPQLLIYQMSNRASGVPDRFSSSGSGTDFTLKISRVEAEDVGVYYCAQNLELPYTFGQGTKLEIK

>  <measurementName>
pKd

>  <observed>
8.58

$$$$
